Sourced from patent US9771370B2

Reported pIC50 is given for each of the following compounds.
# System Tested: Recombinant human IDO (Homo sapiens, UniProt P14902)
# Sequence (P14902 whole entry): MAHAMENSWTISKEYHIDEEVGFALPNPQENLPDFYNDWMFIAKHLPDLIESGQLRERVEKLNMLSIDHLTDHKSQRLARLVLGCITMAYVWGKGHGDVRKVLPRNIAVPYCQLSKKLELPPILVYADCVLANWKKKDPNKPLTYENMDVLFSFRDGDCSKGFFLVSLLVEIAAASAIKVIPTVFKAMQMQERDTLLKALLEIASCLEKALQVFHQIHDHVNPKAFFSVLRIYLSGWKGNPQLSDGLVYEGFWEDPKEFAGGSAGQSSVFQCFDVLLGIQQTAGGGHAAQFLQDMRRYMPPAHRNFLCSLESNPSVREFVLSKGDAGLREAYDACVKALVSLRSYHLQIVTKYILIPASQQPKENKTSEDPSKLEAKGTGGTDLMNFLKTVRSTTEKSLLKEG
# Protocol Details: Bridge-IT tryptophan fluorescence assay of human IDO-1 inhibition
# Condition Description: recombinant human IDO 7.5 nM, L-tryptophan
pIC50: −log10 of the molar value.

In the examples that follow, each entry is paired with its recorded pIC50.
- Compound: "NC(=O)CC1CCC(F)(CCC2c3c(Cl)cccc3-c3cncn32)CC1 (single isomer, unassigned) [Compound 113b]"
  pIC50: "< 6.00"
- Compound: "NS(=O)(=O)C1CCC(F)(CCC2c3ccccc3-c3cncn32)CC1 (single isomer, unassigned) [Compound 121a]"
  pIC50: "> 7.00"
- Compound: "OC1CCC(F)(CCC2c3ccccc3-c3cncn32)CC1 (single isomer, unassigned) [Compound 13b]"
  pIC50: "> 7.00"
- Compound: "CC1(C)CCC(CCC2c3ncccc3-c3cncn32)CC1 (stereo not drawn) [Compound 51]"
  pIC50: "< 6.00"
- Compound: "COc1ccc2c(n1)C(CC(O)C1CCCCC1)n1cncc1-2 (single isomer, unassigned) [Compound 39a]"
  pIC50: "> 7.00"

Request: Looking for the measured pIC50 of OCC1CCC(F)(CCC2c3c(Cl)cccc3-c3cncn32)CC1 (mixture of isomers) [Compound 105b] , can you help?
Result: < 6.00
